Test description: protein stability index of a GFP-peptide fusion (GPS, HEK-293T) (PSI 1-6); higher = more stable;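 further: 24-mer peptide tiles fused after GFP, lentivirally expressed, FACS-sorted into six equal bins by GFP/DsRed ratio, decoded by Illumina sequencing, PSI is the read-weighted mean bin number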
Study conditions: treatment: MLN4924 1 uM, 8 h; c terminus: a fixed tail appended
Use 3 as the dividing line for protein stability index, with the line itself on the Condition met side and lower values as Condition not met.

Below are worked cases with known answers.
* LTTSQERELGIRQRDEQLRALQER [FBF1] | Condition met
* TPPASPPPSVLISKNEVGIFTTPN [KMT2E] | Condition met
* LYHSVKQGPISTKELADFIRERAT [FCHO1] | Condition not met
* DISMEIPQEFQKTVSTMYYLWMCS [SCAMP3] | Condition not met
* LEAIQLDGEILFSLLQKVSPVAHK [TBC1D10A] | Condition not met

## Task In plain terms: is recorded protein stability index at least 3 for VSMEIFFKAWLHNSGTDQEQIHLL [M1AP] ?
## Result Condition not met

## Task In plain terms: is recorded protein stability index at least 3 for GSDYVNANYIDGYRKQNAYIATQG [PTPRD] ?
## Result Condition met

## Task In plain terms: is recorded protein stability index at least 3 for PDVIPLPHIYGARIKGVEVFCPLD [FAM189A2] ?
## Result Condition not met

## Task In plain terms: is recorded protein stability index at least 3 for NRLLQEENRTLQVLRAEHRGFQEE [CBY2] ?
## Result Condition met

## Task In plain terms: is recorded protein stability index at least 3 for LEADELCDDGGDGRGAVVPGAGLR [ZBTB22] ?
## Result Condition met

## Task In plain terms: is recorded protein stability index at least 3 for FPDGDDEFDSPHEDIVFETDHILE [STX11] ?
## Result Condition met

## Task In plain terms: is recorded protein stability index at least 3 for DPALRRRRRGPRNKKRGWRRLAQE [NOP53] ?
## Result Condition met

## Task In plain terms: is recorded protein stability index at least 3 for VPQPRPPGARTRAGAARVARWRRL [FBXO33] ?
## Result Condition met

## Task In plain terms: is recorded protein stability index at least 3 for SGTFAPISDRYSPELRQLVLSLLS [NEK8] ?
## Result Condition not met

## Task In plain terms: is recorded protein stability index at least 3 for RQVVQDLLKAGAEVNVLNDMRDTP [OSBPL1A] ?
## Result Condition met

## Task In plain terms: is recorded protein stability index at least 3 for MPDEPVEAPALPAPAAPMVSKGAE [BRD3] ?
## Result Condition met

## Task In plain terms: is recorded protein stability index at least 3 for DSRRVTKENSHQVKEELSQKFDTL [TRIM63] ?
## Result Condition met

## Task In plain terms: is recorded protein stability index at least 3 for LEQEQEFQVNKLMKKIKKLENDTI [CCDC6] ?
## Result Condition met

## Task In plain terms: is recorded protein stability index at least 3 for SASDGSSFVVARYFPAGNVVNEGF [GLIPR2] ?
## Result Condition not met

Reference source for all entries: the supplement of paper PMC10567573
